# Tested on: Quadruplex DNA
# method notes: Binding affinity to human ILPR G4 quadruplex DNA assessed as change in melting temperature at 20 uM at pH 7.4 by FRET assay
# Type: nucleic-acid assay
measure name: ΔTm (°C)
Report only the number, with the unit °C understood.

# smi, ΔTm [°C]
data = [
    ("COC(=O)C1=CO[C@@H](O[C@@H]2O[C@H](CO)[C@@H](O)[C@H](O)[C@H]2O)[C@@H]2C(CO)=CC[C@H]12", -2.9),
    ("O=c1c(-c2ccc(O)cc2)coc2cc(O[C@@H]3O[C@H](CO)[C@@H](O)[C@H](O)[C@H]3O)cc(O)c12", -4.7),
    ("OC[C@H]1O[C@@H](O[C@@H]2[C@@H](CO)O[C@](O)(CO)[C@H]2O)[C@H](O)[C@@H](O)[C@H]1O", -4.6),
    ("O=C(O)[C@H]1O[C@@H](Oc2cc3oc(-c4ccccc4)cc(=O)c3c(O)c2O)[C@H](O)[C@@H](O)[C@@H]1O", -3.8),
    ("O=c1c(-c2ccc(O)cc2)coc2cc(O[C@@H]3O[C@H](CO)[C@@H](O)[C@H](O)[C@H]3O)ccc12", -1.8),
]

Query block: Returns the measured ΔTm for the input compound. Input: O=c1ccc2cc(O[C@@H]3O[C@H](CO)[C@@H](O)[C@H](O)[C@H]3O)c(O)cc2o1
Result block: -2.4

Query block: Returns the measured ΔTm for the input compound. Input: O=C(O)C1=CO[C@@H](O[C@@H]2O[C@H](CO)[C@@H](O)[C@H](O)[C@H]2O)[C@@H]2C(CO)=CC[C@H]12
Result block: -3.6
